Source listed as ChEMBL document CHEMBL1130131.

In this section we review reported pIC50 values for a set of compounds.
# System: A2780
# run description: Concentration of compound to inhibit the growth of human A2780 ovarian carcinoma cells(in vitro)
# Format: functional, cell-based
Scale note: pIC50 = -log10(concentration in M).

CC(=O)O[C@H]1C(=O)[C@]23C[C@H]2CC2OC[C@@]2(OC(C)=O)C3[C@H](OC(=O)c2ccccc2)[C@]2(O)CC(OC(=O)[C@H](O)[C@@H](NC(=O)NC(C)(C)C)c3ccccc3)=C(C)C1C2(C)C (stereo not given in full) :: 9.22
CC(=O)O[C@H]1C(=O)[C@]2(C)C=CC3OC[C@@]3(OC(C)=O)C2[C@H](OC(=O)c2ccccc2)[C@]2(O)CC(OC(=O)[C@H](O)[C@@H](NC(=O)NC(C)(C)C)c3ccccc3)=C(C)C1C2(C)C (stereo not given in full) :: 9.30
CC(=O)O[C@@]12CO[C@@H]1C[C@H](O)[C@@]1(C)C(=O)[C@H](O)C3=C(C)[C@@H](OC(=O)[C@H](O)[C@@H](NC(=O)OC(C)(C)C)c4ccccc4)C[C@@](O)([C@@H](OC(=O)c4ccccc4)[C@H]21)C3(C)C.O.O.O :: 8.74
CC(=O)O[C@@]12COC1C[C@@H]1C[C@@]13C(=O)[C@H](O)C1C(C)=C(OC(=O)[C@H](O)[C@@H](NC(=O)OC(C)(C)C)c4ccccc4)C[C@@](O)([C@@H](OC(=O)c4ccccc4)C23)C1(C)C (stereo not given in full) :: 8.72

Would you mind telling me what pIC50 value was observed for CC(=O)O[C@H]1C(=O)[C@]2(C)C=CC3OC[C@@]3(OC(C)=O)C2[C@H](OC(=O)c2ccccc2)[C@]2(O)CC(OC(=O)[C@H](O)[C@@H](NC(=O)OC(C)(C)C)c3ccccc3)=C(C)C1C2(C)C (stereo not given in full) ?
8.92
